From: patent US20240116985A1

Biological target: full-length beta-Catenin (Uniprot ID P35222) (Homo sapiens (Human)) (UniProt P35222)
Test: fluorescence polarization competition; full-length beta-catenin, competitor 5FAM-TCF4(10-53) probe
pIC50: −log10 of the molar value. Starred links: 1 amine or outer side, 2 acyl side, 3 side chain; linkers in the order of their positions; H or OH if unused. Positions of bridges follow the written chain, without caps; N, C: chain ends. Non-standard residues stand in square brackets, D forms with d. Primed or numbered codes have the meaning given here. PyrS2″ = (S)-3-amino-1-((pent-4-en-1-yloxy)carbonyl)pyrrolidine-3-carboxylic acid (stapling residue), C=CCCCOC(=O)N1CC[C@@](N[*:1])(C(=O)[*:2])C1; B5(4) = 2,2-bis(4-pentenyl)glycine = 2-amino-2-(pent-4-en-1-yl)hept-6-enoic acid (stitching residue), C=CCCCC(CCCC=C)(N[*:1])C(=O)[*:2]; B5(5) = 2,2-bis(4-pentenyl)glycine, 2-amino-2-(pent-4-en-1-yl)hept-6-enoic acid (stitching residue), C=CCCCC(CCCC=C)(N[*:1])C(=O)[*:2]; B5(21) = 2-amino-2-(pent-4-en-1-yl)hept-6-enoic acid, bis(4-pentenyl)glycine (stitching residue), C=CCCCC(CCCC=C)(N[*:1])C(=O)[*:2]; Phe(2-Cl) = N[C@@H](Cc1ccccc1Cl)C(=O)O; Bta = N[C@@H](Cc1csc2ccccc12)C(=O)O; αAllylPro = C=CC[C@@]1(C(=O)O)CCCN1; tBuAla = CC(C)(C)C[C@H](N)C(=O)O; 3Thi = N[C@@H](Cc1ccsc1)C(=O)O; S8 = C=CCCCCCC[C@](C)(N)C(=O)O; Nle = CCCC[C@H](N)C(=O)O; Aib = CC(C)(N)C(=O)O
readoutType: pIC50

{"binder": "Ac-[αAllylPro]D[tBuAla][B5(21)]DTAAFL[PyrS2″][Phe(2-Cl)][Bta]Q-NH2 (staple 1-4, 4-11) [I-1169]", "pIC50": 6.80}

P: Ac-[αAllylPro]DI[B5(4)]DE[Nle]AFQ[S8]F[Bta]Q-NH2 (staple 1-4, 4-11) [I-656]
Q: Ac-[αAllylPro]D[tBuAla][B5(5)]NT[Aib]AFN[PyrS2″][3Thi][Bta]N-NH2 (staple 1-4, 4-11) [I-2415]
Which entry shows the lesser value of pIC50 here, P or Q ? Which one? Tell me its label.
Q
